- Tested on: MOLT-4 leukemia
- measurement.protocol: NCI-60 one-dose screen, 48 h (100 = growth as untreated, 0 = no growth, -100 = all killed)
- assay.conditions: 10 µM
About 83,000 compounds went through this panel and 20% of them were active in at least one assay; those are over-represented in the sample as a whole.
Lab note: anything with growth at or over 60% counts as Met; the rest go in Not met.

Solved entries:
• COc1cc(C2CC(=O)Nc3nc(N)[se]c32)cc(OC)c1OC (configuration not stated) = Met
• Cc1cc(NC(=O)CCc2ccc(N3C(N)=NC(N)=NC3(C)C)cc2)ccc1S(=O)(=O)F = Not met
• N#C[Se]CCN1C(=O)C2C(C1=O)[C@H]1C=C[C@@H]2S1 (some centres not stated) = Not met
• CCC[CH2][Sn]([CH2]CCC)([CH2]CCC)[O]C(=O)c1ccc(Cl)cc1Cl = Not met
• ClCCN(CCCl)c1ccc(C=NCCc2c[nH]c3ccccc23)cc1 = Met

input: Is growth at least 60%? Consider O=C1NC(=O)C(CN2C(=O)C3(c4ccccc42)[C@H](Cl)C(=O)N3c2ccccc2)C(=O)N1 (some centres not stated)
output: Met

input: Also need NC(=O)NC(=O)CI , thanks.
output: Not met

input: Same thing, different molecule: O=CC(Br)C(Br)c1ccccc1 (configuration not stated)
output: Not met

input: Proceed to N#CC(C#N)=Cc1ccc2ccccc2c1
output: Met

input: Here is the next molecule: COc1cc(C2(C#N)CCN(C)CC2)cc(OC)c1OC
output: Met

input: Entry to check: CCC(C)(C)O
output: Met

----------
- Test system: HL-60(TB) leukemia
- measurement.protocol: NCI-60 one-dose screen, 48 h
- assay.conditions: 10 µM unless noted
The panel holds about 83,000 compounds, 20% with a hit somewhere; the sample as a whole holds those more often. Activity calls are given as the source filed them. How the source made its calls: active means growth percent below 10; inactive means the rest.
Assign a class; possible classes are true = active, false = inactive

Solved cases below.
* N=C(N)c1ccc(-c2ccc(-c3ccc(Cl)cc3)o2)o1 | true
* COc1ccc2c(c1)/C(=C1\S/C(=N/c3nnc(C)s3)NC1=O)C(=O)N2Cc1ccc(Cl)cc1 | false

input: Entry COc1cc2c(/C=C3/C(=O)Nc4ccc(O)cc43)c(Cl)n(Cc3cc(OC)c(OC)c(OC)c3)c2cc1C : call = ?
output: true

input: Now this one: c1ccc(CNc2ccc3nc(CCC4CCCCC4)[nH]c3c2)cc1
output: false

input: Also CS(=O)(=O)c1cccc(Nc2ncc3cc(-c4ccccc4Cl)ccc3n2)c1 , if possible.
output: true

input: Check CCCCCCCNC(=O)CCCNc1ncnc2c1ncn2-c1cccc(C(C)O)c1 (stereo unspecified) too.
output: false

input: COC(=O)c1cc(-c2cc(OC)c(OC)c(OC)c2)[nH]c1N/N=C/c1c(Cl)cccc1Cl ?
output: false

input: Follow-up item: Nc1cc(Br)c(-c2nnc(CCC(=O)c3nc4ccccc4[nH]3)o2)c(Br)c1
output: false

input: Now give it for Cc1ccc(-c2c3c(N)c4c(nc3nc3c2c(C)nn3-c2ccccc2)CCCC4)cc1 too.
output: false

input: Ok, now Cc1cc(C#Cc2ccccc2)ccc1-n1c(/C=C/c2cc(O)ccc2O)nc2ccccc2c1=O
output: true

input: Another compound: O=C(Nc1nccs1)c1noc2ccccc12
output: false

input: Follow-up item: CC(O)Cc1c[nH]c(=O)[nH]c1=O (stereo unspecified)
output: false

input: // repeat for CC(=O)n1cc(-c2c[nH]c3ccccc23)c(-c2ccc(Cl)cc2)n1 and report
output: false

input: Now consider Cc1cc(NCC(=O)Nc2ccc(-c3nc4ccccc4s3)cc2)no1 and answer again.
output: false

input: Next entry: CCN(CC)CCCC(C)Nc1ccc2ccc(Cl)cc2n1 (stereo unspecified)
output: false

input: Now the compound CCCCc1nc(Cl)c(C2CC(c3ccc(S(N)(=O)=O)cc3)=NN2c2cc(Cl)cc(Cl)c2)[nH]1 (stereo unspecified)
output: true

input: How about this compound: CCN(CC)CCC(CNc1c(C)cnc2cc(Cl)ccc12)c1ccc(Cl)c(Cl)c1 (stereo unspecified)
output: false

input: Next up: COc1cc(C(=O)Nc2ccc(N(C)C)cc2)cc(OC)c1OC
output: false

input: # repeat for COc1ccc(-c2csc(NC(=O)c3cc(O)c(O)c(O)c3)n2)cc1
output: false

input: Same question, Nc1cc2nc3ccccc3sc-2cc1=O this time
output: true

input: Again, but for c1cn2cc(-c3ccc4cn[nH]c4c3)nc(Nc3ccc(N4CCOCC4)cc3)c2n1
output: false

----------
- System: HL-60(TB) leukemia
- measurement.protocol: NCI-60 one-dose screen, 48 h (100 = growth as untreated, 0 = no growth, -100 = all killed)
- assay.conditions: 10 µM unless noted
This is part of a sample that, as a whole, favours compounds with a hit. Of some 83,000 tested, about 20% had one in any assay.
observed.property: growth (%)
// note: answer is a bare numeric in %

A selection of reference data follows.
* CCCCc1ccc(C(N)=O)nc1 | 88.2
* COc1cc(-c2nn(-c3cccc(NC(=O)CCNc4ccc(N5CCOCC5)cc4)c3)cc2-c2ccncc2)ccc1Cl | 8.36
* COc1ccc(-c2csc3c2-n2cccc2C3=O)cc1O | -18.3
* CCOC(=O)N1C=CC2C=CC1C1C=CC=CC2N1C(=O)OCC (stereo not given) | 104

input: Field: growth (HL-60(TB) leukemia). Entry: C=C1C(=O)O[C@H]2[C@H]1CC/C(C=Nc1c(N)cc(C(F)(F)F)cc1C(F)(F)F)=C\CC[C@@]1(C)O[C@@H]21
output: -24.9

----------
- Tested on: HL-60(TB) leukemia
- measurement.protocol: NCI-60 one-dose screen, 48 h
- assay.conditions: 10 µM unless noted
Compounds without any hit were thinned out: in the full panel of roughly 83,000, 20% have a hit. Active and inactive are the calls of the source. Rule for the calls: active = growth percent below 10; inactive = the rest.
Your response should consist of one outcome taken from active, inactive

* COc1cccc(/C=C2\COc3ccc(O)c(O)c3C2=O)c1OC | active
* CC(C)CC(=O)C(CCc1ccccn1)C(C)C (stereo not drawn) | inactive
* BrC1CC(Br)c2c1c1c(c3c2C(Br)CC3Br)C(Br)CC1Br (stereo not drawn) | inactive
* Cc1ccc(C2=NN(c3ccc(S(N)(=O)=O)cc3)C(c3cn(-c4ccccc4)nc3-c3ccccc3)C2)cc1 (stereo not drawn) | inactive
* O=C1Nc2ccc(F)cc2/C1=N/c1nnc(Sc2ccccc2)s1 | inactive
* CC(O)(CO)c1ccccc1 (stereo not drawn) | inactive
* COc1cc(C2Nc3ccccc3S2)cc(CN2CCOCC2)c1O (stereo not drawn) | inactive
* CSc1nc(=O)n(Cc2ccc(Cl)cc2)c(=O)[nH]1 | inactive

input: Hello, I am checking results. What call was entered for O=[N+]([O-])c1ccc(N/N=C\c2cc(Cl)ccc2O)nc1 ?
output: active

input: Moving on to CC(=O)[C@@H]1CC[C@]2(CO)CC[C@]3(C)[C@H](CC[C@@H]4[C@@]5(C)CCCNC(C)(C)[C@@H]5CC[C@]43C)[C@@H]12
output: inactive

input: Next entry: CCN1C(=O)N(CC)C2C1NN=c1s/c(=C3\C(=O)Nc4ccccc43)c(=O)n12 (stereo not drawn)
output: active

input: Also C=CN(C(=O)N1CCN(c2cc3c(cc2F)c(=O)c(C(=O)O)cn3C2CC2)CC1)c1nc(-c2ccc(C)cc2)cs1 , if possible.
output: active

input: Repeat for the following molecule: CCOC(=O)C1=NN(c2ccccc2)C2=NC(=O)/C(=C\c3cn(-c4ccccc4)nc3-c3cc4ccccc4o3)C(=O)N12
output: inactive

input: Here is the next molecule: CO[C@H]1/C=C/O[C@@]2(C)Oc3c(C)c(O)c4c(c3C2=O)C(=O)C(/C=N/N(c2ccccc2)c2ccccc2)=C(NC(=O)/C(C)=C\C=C\[C@H](C)[C@H](O)[C@@H](C)[C@@H](O)[C@@H](C)[C@H](OC(C)=O)[C@@H]1C)C4=O
output: active

input: Next record, please: COc1ccc(C2=NC(=O)NC2c2ccc(OC)cc2)cc1 (stereo not drawn)
output: inactive

input: Entry COc1ccc(Cn2cc3c(c2-c2ccc(O)cc2)CCc2cnoc2-3)cc1 please
output: active

input: What about C=C(C)[C@@H]1CC[C@]2(C(=O)N3CCN(CC)CC3)CC[C@]3(C)[C@H](CC[C@@H]4[C@@](C)(CCC(=O)N5CCN(CC)CC5)[C@H](C(=C)C)CC[C@]43C)[C@@H]12 ?
output: inactive

input: Item: CCN(CC)c1ccc(/C=N/NC(=O)c2ccccc2Nc2ccnc(C(F)(F)F)c2)c(O)c1
output: inactive

----------
- System: HL-60(TB) leukemia
- measurement.protocol: NCI-60 one-dose screen, 48 h (100 = growth as untreated, 0 = no growth, -100 = all killed)
- assay.conditions: 10 µM unless noted
Compounds without any hit were thinned out: in the full panel of roughly 83,000, 20% have a hit.
Classify: 1.0 when growth is strictly less than 90%; 0.0 when growth is not.

* COc1ccc(/C(CS(=O)(=O)c2ccccc2)=N\O)cc1 | 0.0
* CCCCO[C@@H]1C=C2[C@H]3CC(C)(C)C(=O)C[C@]3(C(=O)O[C@@H]3O[C@H](CO[C@@H]4O[C@H](CO)[C@@H](OC5OC(C)C(O)C(O)C5O)[C@H](O)[C@H]4O)[C@@H](O)[C@H](O)[C@H]3O)CC[C@@]2(C)[C@]2(C)CC[C@H]3C(C)(C)C(=O)CC[C@]3(C)[C@@H]12 (some centres not stated) | 1.0
* CNc1ccc(NC)c2c1C(=O)c1ccccc1C2=O | 1.0
* Cc1ccc(-c2nc(N3CCN(C(=O)Nc4ccc(Cl)c(C(F)(F)F)c4)CC3)c3ccccc3n2)cc1 | 0.0

Alright, here's another compound for you.
input: I'd appreciate it if you could check whether CO[C@@]12C=C[C@@]34CCC(=O)N3c3ccccc3[C@@H](O1)C4C2 has growth smaller than 90%.
output: 0.0
